Test system: granuloma / thymus
Experiment: Ratio of the local anti-inflammatory activity to the thymolytic activity
Assay type: in vivo, rat (Wistar)
Details: thymolytic activity determined by the oral route
Procedure: The DE50 were calculated by transferring the results on to semi-logarithmic paper. For each animal, the weight of the thymus has been brought to 100 grams of body weight. The thymolytic activity of the products under study was then expressed as a percentage of regression of the thymus with respect to the animals of the reference group and the ED50 of each product tested was estimated by transferring the percentage inhibition obtained for each dose on semi-logarithmic paper. […]
Property: ED50 anti-proliferative activity / ED50 thymolytic activity (oral route)

{"Compound": "CC(C)(C)C(=O)SCC(=O)[C@@]1(O)CC[C@H]2[C@@H]3CCC4=CC(=O)CC[C@]4(C)[C@H]3[C@@H](O)C[C@@]21C", "Target Or System": "granuloma / thymus", "Qualifying Sign": "<", "Measured Number": 0.003}
{"Compound": "CC(=O)OCC(=O)[C@@]1(O)CC[C@H]2[C@@H]3CCC4=CC(=O)CC[C@]4(C)[C@H]3[C@@H](O)C[C@@]21C [Hydrocortisone (acetate), Hydrocortisone acetate, reference compound]", "Target Or System": "granuloma / thymus", "Qualifying Sign": "=", "Measured Number": 0.25}
{"Compound": "CC(C)(C)C(=O)SCC(=O)[C@@]1(O)CC[C@H]2[C@@H]3CCC4=CC(=O)C=C[C@]4(C)[C@H]3[C@@H](O)C[C@@]21C", "Target Or System": "granuloma / thymus", "Qualifying Sign": "=", "Measured Number": 0.046}
{"Compound": "C[C@]12CCC(=O)C=C1CC[C@@H]1[C@@H]2[C@@H](O)C[C@@]2(C)[C@H]1CC[C@]2(O)C(=O)CO [Hydrocortisone (base), Hydrocortisone, reference compound]", "Target Or System": "granuloma / thymus", "Qualifying Sign": "=", "Measured Number": 2.5}
{"Compound": "C[C@@H]1C[C@H]2[C@@H]3CCC4=CC(=O)C=C[C@]4(C)[C@@]3(F)[C@@H](O)C[C@]2(C)[C@@]1(O)C(=O)CO [Dexamethasone (base), Dexamethasone, reference compound]", "Target Or System": "granuloma / thymus", "Qualifying Sign": "=", "Measured Number": 80}

----------
Test system: granuloma / thymus
Assay: Ratio of the local anti-inflammatory activity to the thymolytic activity
Assay type: in vivo, rat (Wistar)
Conditions: thymolytic activity determined by the oral route
Reported ED50 anti-proliferative activity / ED50 thymolytic activity (oral route) is given for each of the following molecules.
Property: ED50 anti-proliferative activity / ED50 thymolytic activity (oral route)

{"Molecule": "C[C@]12CCC(=O)C=C1CC[C@@H]1[C@@H]2[C@@H](O)C[C@@]2(C)[C@H]1CC[C@]2(O)C(=O)CSC(=O)c1ccc(F)cc1 [JO 1026]", "Qualifying Sign": "<", "Measured Number": 0.01}
{"Molecule": "C[C@]12C=CC(=O)C=C1CC[C@@H]1[C@@H]2[C@@H](O)C[C@@]2(C)[C@H]1CC[C@]2(O)C(=O)CO [Prednisolone (base), Prednisolone, reference compound]", "Qualifying Sign": "=", "Measured Number": 12.5}
{"Molecule": "CC(=O)OCC(=O)[C@@]1(O)[C@H](C)C[C@H]2[C@@H]3CCC4=CC(=O)C=C[C@]4(C)[C@@]3(F)[C@@H](O)C[C@@]21C [Dexamethasone (acetate), Dexamethasone acetate, reference compound]", "Qualifying Sign": "=", "Measured Number": 40}
